# measurement_notes: physchem
# assay_context: octan-1-ol/water, pH 7.4, LogD7.4
hey, just use 1 if measured logD is less than 2, otherwise -1

Problem: Regarding Brc1cc(Br)cc(COC[C@H](c2ccccc2)N2CCNCC2)c1 , kindly confirm whether its logD is beneath 2.
Solution: -1

Problem: Regarding Cc1cc2cc(C)c3nnc(SCC(=O)N4CCN(C(=O)c5ccco5)CC4)n3c2cc1C , kindly confirm whether its logD is beneath 2.
Solution: -1

Problem: Regarding COCCNCc1ccc(-c2cc(C(N)=O)c(NC(N)=O)s2)cc1 , kindly confirm whether its logD is beneath 2.
Solution: 1

Problem: Regarding COc1ccc2nc(N[C@H]3CCC[C@H](NCc4ccsc4)C3)cc(C)c2c1 , kindly confirm whether its logD is beneath 2.
Solution: -1

Problem: Regarding CCOC(=O)c1ccc(OCC2CN(c3ccc(C)nn3)C2)cc1 , kindly confirm whether its logD is beneath 2.
Solution: -1

Problem: Regarding O=C(O)C(c1ccccc1)N1CCCC(CN2CCC(Oc3ccc(Cl)c(Cl)c3)CC2)C1 (stereo not drawn) , kindly confirm whether its logD is beneath 2.
Solution: -1

Problem: Regarding COc1ccccc1Oc1ccc(N(Cc2cccnc2)S(=O)(=O)CC(F)(F)F)cc1 , kindly confirm whether its logD is beneath 2.
Solution: 1

Problem: Regarding c1ccc(C2Cc3ccccc3CN2)cc1 (stereo not drawn) , kindly confirm whether its logD is beneath 2.
Solution: 1

Problem: Regarding Cc1ccc(N2CC(COc3ccc(-c4noc(C)n4)cc3)C2)nn1 , kindly confirm whether its logD is beneath 2.
Solution: -1

Problem: Regarding N#Cc1ccc(OCC(=O)O)c(-c2ccccc2)c1 , kindly confirm whether its logD is beneath 2.
Solution: 1

Problem: Regarding COc1ccnc(NC2CCN(C(=O)c3ccc(C#N)cc3)CC2)c1 , kindly confirm whether its logD is beneath 2.
Solution: 1

Problem: Regarding CC(C)n1c(=O)n(C)c(=O)c2c(C(=O)N3CCS(=O)(=O)C3)c(Cc3ccccc3C(F)(F)F)sc21 , kindly confirm whether its logD is beneath 2.
Solution: -1

Problem: Regarding O=C1/C(=N\O)c2ccccc2N1Cc1ccccc1[N+](=O)[O-] , kindly confirm whether its logD is beneath 2.
Solution: -1

Problem: Regarding CC(C)(N)C(=O)N[C@H](COCc1ccccc1)C(=O)N1CCC2(CC1)CN(S(C)(=O)=O)c1ccccc12 , kindly confirm whether its logD is beneath 2.
Solution: 1

Problem: Regarding CCc1c2c(nc3ccc(O)cc13)-c1cc3c(c(=O)n1C2)COC(=O)[C@]3(O)CC [7-ETHYL-10-HYDROXYCAMPTOTHECIN] , kindly confirm whether its logD is beneath 2.
Solution: 1

Problem: Regarding Cc1cc(N)n(-c2ccccc2)n1 , kindly confirm whether its logD is beneath 2.
Solution: 1

Problem: Regarding Cc1ccc(CO)cc1N(C)c1ccnc(Nc2cc(C(=O)N3CCOCC3)cc(N3CCOCC3)c2)n1 , kindly confirm whether its logD is beneath 2.
Solution: -1

Problem: Regarding COc1ccc(C(CNC(=O)Nc2ccccc2)N2CCN(C)CC2)cc1 (stereo not drawn) , kindly confirm whether its logD is beneath 2.
Solution: 1

Problem: Regarding CN(C/C=C/C#CC(C)(C)C)Cc1cccc2ccccc12 , kindly confirm whether its logD is beneath 2.
Solution: -1

Problem: Regarding NC(=O)Nc1sc(-c2cc(F)cc(F)c2)cc1C(=O)N[C@H]1CCCNC1 , kindly confirm whether its logD is beneath 2.
Solution: -1

Problem: Regarding CCN1CCN(c2ccc(Nc3cc(N(C)C(=O)Nc4c(Cl)c(OC)cc(OC)c4Cl)ncn3)cc2)CC1 , kindly confirm whether its logD is beneath 2.
Solution: -1

Problem: Regarding N=C(N)Nc1nc2ccccc2o1 , kindly confirm whether its logD is beneath 2.
Solution: 1

Problem: Regarding CN(C(=O)c1ccncc1)C1CCN(CCC(c2ccccc2)c2ccccc2)CC1 , kindly confirm whether its logD is beneath 2.
Solution: -1

Problem: Regarding CCC(Oc1ccc(C(F)(F)F)cc1-c1ccc(S(=O)(=O)CC)cc1C)C(=O)O (stereo not drawn) , kindly confirm whether its logD is beneath 2.
Solution: 1

Problem: Regarding CCC(c1nc2ccsc2c(=O)n1Cc1cccnc1)N(CCCN)C(=O)c1ccc(C)cc1 (stereo not drawn) , kindly confirm whether its logD is beneath 2.
Solution: 1

Problem: Regarding CCC1=C(C)CN(C(=O)NCCc2ccc(S(=O)(=O)NC(=O)N[C@H]3CC[C@H](C)CC3)cc2)C1=O [GLIMEPIRIDE] , kindly confirm whether its logD is beneath 2.
Solution: 1

Problem: Regarding CCN(C(=O)c1cnn(-c2ccccc2)c1NS(=O)(=O)c1ccc(-c2cnco2)cc1)C1CCCCC1 , kindly confirm whether its logD is beneath 2.
Solution: 1
